The reported measurements were obtained from PubChem BioAssay (NCATS).

Test Description: Quantitative highthroughput screen to assess conditional lethalithy of NOMO1 cells grown in Human Plasma-Like Medium with dialyzed fetal bovine serum (HPLM+ds) (AID 1963878); further: nearly all actives have a fitted effect of over 35% in size;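 on viability: 100% = DMSO wells and 0% = empty wells on each plate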
Conditions: NOMO1 AML cells in HPLM+ds, CellTiter-Glo viability, 48 h; series mostly up to 45.8 µM
Records with an inconclusive call do not appear. Active and inactive are the calls of the source. The call rests on the fitted dose curve; in most records, active means well fitted cell-killing curve with a large enough effect; inconclusive means small, poorly fitted or top-dose-only effect, or effect the other way; inactive means no such curve, though single readings can be large or run the other way.
Respond using exactly one of the listed classes: active, inactive

CCCNCC(O)COc1ccccc1C(=O)CCc1ccccc1 (stereo not drawn) = inactive
O=C(O)c1cccc(-c2noc(-c3ccccc3F)n2)c1 = inactive
C=C1C(=O)O[C@H]2[C@@H]1CCC(C)=CCC[C@@]1(C)O[C@@H]21 = active
CCCS(=O)c1ccc2nc(NC(=O)OC)[nH]c2c1 (stereo not drawn) = active

I'd appreciate the recorded outcome for c1ccc(CNc2nc(NCc3ccccc3)c3ccccc3n2)cc1 from this test.
active

###

Test Description: Viability qHTS for spleen associated tyrosine kinase inhibitor (SYKi) drug resistant MV4-11 cells (AID 1963824); further: nearly all actives have a fitted effect of over 35% in size
Conditions: SYKi-resistant MV4-11 viability, CellTiter-Glo, 72 h; series mostly up to 45 µM
Records with an inconclusive call do not appear. Active and inactive are the calls of the source. Calls come from the whole dose curve; as a rule, active = well fitted cell-killing curve with a large enough effect; inconclusive = small, poorly fitted or top-dose-only effect, or effect the other way; inactive = no such curve, though single readings can be large or run the other way.
Please state which outcome applies, choosing from yes (1) for active, no (0) for inactive

The following compounds have reported results that may help.
Cc1[nH]nc2ccc(-c3cncc(OC[C@@H](N)Cc4ccccc4)c3)cc12 = yes (1)
O=c1cc(-c2ccc(O)cc2)oc2cc(OC3OC(CO)C(O)C(O)C3O)c(C3OC(CO)C(O)C(O)C3O)c(O)c12 (centres undefined) = no (0)
N=c1nc(N2CCCCC2)cc(N)n1O = no (0)
CN(C)CCN(Cc1ccsc1)c1ccccn1 = no (0)

Please let me know the test result on file for CC(C)C(C(=O)N(C)C(C)C(N)=O)N(C)C(=O)C1CCCN1C(=O)/C=C/C=C/C(O)C(C)O (centres undefined) .
no (0)

What did this assay record as the result for C=C[C@](C)(CC/C=C(\C)C(=O)O)O[C@@H]1OC[C@H](O)[C@H](O)[C@H]1O ?
no (0)

Tell me the recorded outcome of this test for Cc1ccccc1C(C(=O)NC1CCCCC1)N(C(=O)CNc1ccc(C#N)cc1)c1cccc(F)c1 (centres undefined) .
no (0)

###

Test Description: Viability qHTS for spleen associated tyrosine kinase inhibitor (SYKi) naive MV4-11 cells (AID 1963823); further: nearly all actives have a fitted effect of over 40% in size; further: potency means the concentration at half of the fitted maximal effect
Conditions: MV4-11 AML viability, CellTiter-Glo luminescence, 72 h; series mostly up to 45 µM
Records with an inconclusive call do not appear. Activity calls are given as the source filed them. The call rests on the fitted dose curve; in most records, active means well fitted cell-killing curve with a large enough effect; inconclusive means small, poorly fitted or top-dose-only effect, or effect the other way; inactive means no such curve, though single readings can be large or run the other way.
Measurement Label: Potency

Worked cases, answers included:
COc1cc2c(Nc3ccc(Cl)c(Cl)c3F)ncnc2cc1OCC1C[C@@H]2CN(C)C[C@@H]2C1 (stereo not given in full) = 1.86 µM (active)
C[C@@H]1O[C@@H](O[C@H]2[C@@H]3C=CO[C@@H](O[C@@H]4O[C@H](CO)[C@@H](O)[C@H](O)[C@H]4O)[C@@H]3[C@@]3(CO)O[C@@H]23)[C@H](O)[C@H](OC(=O)/C=C/c2ccc(O)cc2)[C@H]1OC(=O)/C=C/c1ccc(O)cc1 = inactive
CC1(C)CC(NC(=O)C(=O)Nc2ccc(Br)cc2)CC(C)(C)N1 = 3.26 µM (active)
NC(CSCC(=O)O)C(=O)O (stereo not given) = inactive

Supply measured Potency of CN1Cc2cc(C(=O)N3CCC(C4CCNCC4)CC3)ccc2NC(CC(=O)O)C1=O (stereo not given) in your reply.
inactive
